Target: Calcitonin gene-related peptide type 1 receptor (Homo sapiens, UniProt O60894+Q16602)
Sequence (Q16602 whole entry, one chain of several): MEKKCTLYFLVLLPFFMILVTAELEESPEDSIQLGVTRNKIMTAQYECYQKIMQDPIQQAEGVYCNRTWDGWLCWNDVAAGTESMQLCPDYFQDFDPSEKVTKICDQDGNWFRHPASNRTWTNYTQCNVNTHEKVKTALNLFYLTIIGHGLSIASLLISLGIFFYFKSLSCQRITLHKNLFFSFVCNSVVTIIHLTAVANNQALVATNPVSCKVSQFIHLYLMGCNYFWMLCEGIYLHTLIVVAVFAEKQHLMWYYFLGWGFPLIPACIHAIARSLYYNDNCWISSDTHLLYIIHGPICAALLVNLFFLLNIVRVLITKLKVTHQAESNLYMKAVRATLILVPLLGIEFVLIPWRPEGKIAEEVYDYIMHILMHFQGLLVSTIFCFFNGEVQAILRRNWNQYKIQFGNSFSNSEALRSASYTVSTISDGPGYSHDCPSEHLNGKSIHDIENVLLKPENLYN
Assay: Displacement of [125]CGRP from human CGRP receptor expressed in human SK-N-MC cell membrane after 2 hrs by scintillation counting
Format: cell membranes
Below, each of the molecules is paired with its reported IC50 value.
Express the result in nM but write the number alone.

Worked set:
{"columns": ["cpd_smiles", "tested_target", "IC50 (nM)"],
 "data": [
  ["O=C(Nc1cccc(Cl)c1Cl)N[C@@H](CC(=O)N1CCC(N2Cc3ccccc3NC2=O)CC1)C(=O)N1CCC(N2CCCCC2)CC1", "Calcitonin gene-related peptide type 1 receptor (Homo sapiens, UniProt O60894+Q16602)", 97],
  ["O=C(C[C@H](Nc1ccc(Br)c2ccccc12)C(=O)N1CCC(N2CCCCC2)CC1)N1CCC(N2Cc3ccccc3NC2=O)CC1", "Calcitonin gene-related peptide type 1 receptor (Homo sapiens, UniProt O60894+Q16602)", 120],
  ["O=C(C[C@H](Nc1cccc2ncccc12)C(=O)N1CCC(N2CCCCC2)CC1)N1CCC(N2Cc3ccccc3NC2=O)CC1", "Calcitonin gene-related peptide type 1 receptor (Homo sapiens, UniProt O60894+Q16602)", 890]
]}

Please turn your attention to the following entry.
Could you tell me which IC50 is on file for "Cc1cc(C[C@@H](CC(=O)N2CCC(N3Cc4cccc(F)c4NC3=O)CC2)C(=O)N2CCC(N3CCCCC3)CC2)cc2cn[nH]c12" ? 0.2

----------
Below, each of the compounds is paired with its reported log10 IC50 value.
Target: Calcitonin gene-related peptide type 1 receptor (Homo sapiens, UniProt O60894+Q16602)
Assay: Displacement of [125]CGRP from human CGRP receptor expressed in human SK-N-MC cell membrane after 2 hrs by scintillation counting
Format: cell membranes
In plain terms, each number is the log10 of measured IC50 in nM.

Worked set:
{"columns": ["compound", "numeric_value"],
 "data": [
  ["CC(C)(C)OC(=O)N[C@@H](CC(=O)N1CCC(N2Cc3ccccc3NC2=O)CC1)C(=O)N1CCC(N2CCCCC2)CC1", 2.77],
  ["O=C(N[C@@H](CC(=O)N1CCC(N2Cc3ccccc3NC2=O)CC1)C(=O)N1CCC(N2CCCCC2)CC1)Oc1ccccc1", 2.45],
  ["Cc1nc(N[C@@H](CC(=O)N2CCC(N3Cc4ccccc4NC3=O)CC2)C(=O)N2CCC(N3CCCCC3)CC2)nc2nn[nH]c12", 1.86]
]}

Please turn your attention to the following entry.
Could you tell me which log10 IC50 is on file for O=C(C[C@H](NC1CCC(O)CC1)C(=O)N1CCC(N2CCCCC2)CC1)N1CCC(N2Cc3ccccc3NC2=O)CC1 (stereo partly drawn) ? 3.65

----------
Target: Calcitonin gene-related peptide type 1 receptor (Homo sapiens, UniProt O60894+Q16602)
Assay: Displacement of [125]CGRP from human CGRP receptor expressed in human SK-N-MC cell membrane after 2 hrs by scintillation counting
Assay type: cell membranes
quantity_kind: IC50

Worked set:
{"columns": ["compound", "result"],
 "data": [
  ["O=C(C[C@H](Nc1cccc2ccccc12)C(=O)N1CCC(N2CCCCC2)CC1)N1CCC(N2Cc3ccccc3NC2=O)CC1", "220 nM"],
  ["O=C(C[C@H](NCc1ccccn1)C(=O)N1CCC(N2CCCCC2)CC1)N1CCC(N2Cc3ccccc3NC2=O)CC1", "700 nM"],
  ["O=C(C[C@H](NCc1ccc2[nH]ncc2c1)C(=O)N1CCC(N2CCCCC2)CC1)N1CCC(N2Cc3ccccc3NC2=O)CC1", "130 nM"],
  ["Cc1cc(CC(CC(=O)N2CCC3(CC2)OC(=O)Nc2ccccc23)C(=O)N2CCC3(CC2)OCCO3)cc2cn[nH]c12 (racemic)", "5.9 nM"],
  ["Cc1cc(C[C@H](CC(=O)N2CCC(N3Cc4cccc(F)c4NC3=O)CC2)C(=O)N2CCC(N3CCCCC3)CC2)cc2cn[nH]c12", "6.7 nM"]
]}

Could you tell me which IC50 is on file for "O=C(C[C@H](Nc1nc(Cl)nc2[nH]ncc12)C(=O)N1CCC(N2CCCCC2)CC1)N1CCC(N2Cc3ccccc3NC2=O)CC1" ? 250 nM

Could you tell me which IC50 is on file for Cc1cc(CC(CC(=O)N2CCC3(CC2)OC(=O)Nc2ccccc23)C(=O)N2CCCCC2)cc2cn[nH]c12 (racemic) ? 19 nM

----------
Molecular target: Calcitonin gene-related peptide type 1 receptor (Homo sapiens, UniProt O60894+Q16602)
Test: Antagonist activity at human CGRP receptor expressed in human SK-N-MC cells assessed as inhibition of CGRP-stimulated cAMP production
Format: functional, cell-based
quantity_kind: pIC50
# pIC50: negative log10 of molar concentration; output just the value

Worked set:
{"columns": ["molecule", "tested_target", "pIC50"],
 "data": [
  ["Cc1cc(C[C@@H](CC(=O)N2CCC(N3Cc4ccccc4NC3=O)CC2)C(=O)N2CCC(N3CCCCC3)CC2)cc2cn[nH]c12", "Calcitonin gene-related peptide type 1 receptor (Homo sapiens, UniProt O60894+Q16602)", 10.72],
  ["Cc1cc(CC(CC(=O)N2CCC(N3Cc4ccccc4NC3=O)CC2)C(=O)N2CCCCC2)cc2cn[nH]c12 (racemic)", "Calcitonin gene-related peptide type 1 receptor (Homo sapiens, UniProt O60894+Q16602)", 8.16],
  ["Cc1nc(N[C@@H](CC(=O)N2CCC(N3Cc4ccccc4NC3=O)CC2)C(=O)N2CCC(N3CCCCC3)CC2)nc2nn[nH]c12", "Calcitonin gene-related peptide type 1 receptor (Homo sapiens, UniProt O60894+Q16602)", 6.92],
  ["Cc1cc(C[C@H](CC(=O)N2CCC(N3Cc4cccc(F)c4NC3=O)CC2)C(=O)N2CCC(N3CCCCC3)CC2)cc2cn[nH]c12", "Calcitonin gene-related peptide type 1 receptor (Homo sapiens, UniProt O60894+Q16602)", 8.34],
  ["Cc1cc(CC(CC(=O)N2CCC3(CC2)OC(=O)Nc2ccccc23)C(=O)N2CCCCC2)cc2cn[nH]c12 (racemic)", "Calcitonin gene-related peptide type 1 receptor (Homo sapiens, UniProt O60894+Q16602)", 7.47]
]}

Item "Cc1cc(C[C@H](CC(=O)N2CCC(N3Cc4ccccc4NC3=O)CC2)C(=O)N2CCC(N3CCCCC3)CC2)cc2cn[nH]c12" with Calcitonin gene-related peptide type 1 receptor (Homo sapiens, UniProt O60894+Q16602) - pIC50? 7.96

Item "O=C(C[C@H](Nc1nc(Cl)nc2[nH]ncc12)C(=O)N1CCC(N2CCCCC2)CC1)N1CCC(N2Cc3ccccc3NC2=O)CC1" with Calcitonin gene-related peptide type 1 receptor (Homo sapiens, UniProt O60894+Q16602) - pIC50? 7.00

Item "O=C(C[C@H](Nc1ccc2[nH]ncc2c1)C(=O)N1CCC(N2CCCCC2)CC1)N1CCC(N2Cc3ccccc3NC2=O)CC1" with Calcitonin gene-related peptide type 1 receptor (Homo sapiens, UniProt O60894+Q16602) - pIC50? 6.64

Item Cc1cc(CC(CC(=O)N2CCC(N3Cc4ccccc4NC3=O)CC2)C(=O)N2CCC3(CC2)OCCO3)cc2cn[nH]c12 (racemic) with Calcitonin gene-related peptide type 1 receptor (Homo sapiens, UniProt O60894+Q16602) - pIC50? 8.24

Item Cc1cc(CC(CC(=O)N2CCC(N3Cc4ccccc4NC3=O)CC2)C(=O)N2CCC(C)CC2)cc2cn[nH]c12 (racemic) with Calcitonin gene-related peptide type 1 receptor (Homo sapiens, UniProt O60894+Q16602) - pIC50? 8.70

Item Cc1cc(CC(CC(=O)N2CCC(N3Cc4ccccc4NC3=O)CC2)C(=O)N2CCC(N3CCCCC3)CC2)cc2cn[nH]c12 (racemic) with Calcitonin gene-related peptide type 1 receptor (Homo sapiens, UniProt O60894+Q16602) - pIC50? 10.17

Item "O=C(C[C@H](Nc1cc(Cl)ncn1)C(=O)N1CCC(N2CCCCC2)CC1)N1CCC(N2Cc3ccccc3NC2=O)CC1" with Calcitonin gene-related peptide type 1 receptor (Homo sapiens, UniProt O60894+Q16602) - pIC50? 7.34

Item Cc1cc(CC(CC(=O)N2CCC(N3Cc4cccc(F)c4NC3=O)CC2)C(=O)N2CCC(N3CCCCC3)CC2)cc2cn[nH]c12 (racemic) with Calcitonin gene-related peptide type 1 receptor (Homo sapiens, UniProt O60894+Q16602) - pIC50? 10.05

Item "Cc1cc(C[C@@H](CC(=O)N2CCC(N3Cc4cccc(F)c4NC3=O)CC2)C(=O)N2CCC(N3CCCCC3)CC2)cc2cn[nH]c12" with Calcitonin gene-related peptide type 1 receptor (Homo sapiens, UniProt O60894+Q16602) - pIC50? 10.09

Item "O=C(C[C@H](Nc1ccc(Cl)cc1[N+](=O)[O-])C(=O)N1CCC(N2CCCCC2)CC1)N1CCC(N2Cc3ccccc3NC2=O)CC1" with Calcitonin gene-related peptide type 1 receptor (Homo sapiens, UniProt O60894+Q16602) - pIC50? 7.49

Item Cc1cc(CC(CC(=O)N2CCC3(CC2)OC(=O)Nc2ccccc23)C(=O)N2CCC3(CC2)OCCO3)cc2cn[nH]c12 (racemic) with Calcitonin gene-related peptide type 1 receptor (Homo sapiens, UniProt O60894+Q16602) - pIC50? 8.06
